Data provenance: patent US20230416239A1

# Target: UniProt P05112
# Sequence (P05112 25-153, species assumed): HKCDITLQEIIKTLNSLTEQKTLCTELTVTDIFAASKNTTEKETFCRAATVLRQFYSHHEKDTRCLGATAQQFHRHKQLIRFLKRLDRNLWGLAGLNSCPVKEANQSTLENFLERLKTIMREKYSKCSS
# Procedure text: Immunoassay binding test, IL-4
# Condition description: 100 μM
Readout label: BINDING IL4 % Neutra at 100 μM (%)
Give bare numbers, in %.

Sample answers from the record:
CN(CCOCCN(Cc1cccnc1F)Cc1cn(S(=O)(=O)c2ccccc2)c2ccccc12)C1CCCC1 [Compound 105] :: 91.2
CN(CCCCCN(Cc1cccc(F)n1)Cc1cn(S(=O)(=O)c2ccccc2)c2ccccc12)C1CCCCC1 :: 88.4
O=S(=O)(c1ccccc1)n1cc(CN(CCCCCNC2CCCCC2)Cc2ccnc(F)c2)c2ccccc21 :: 93.3
NCCCCN(Cc1cn(S(=O)(=O)c2ccccc2)c2ccccc12)Cc1cn(S(=O)(=O)c2ccccc2)c2ccccc12 :: 95.5
CN(CCCCCN(Cc1ccc(F)nc1)Cc1cn(S(=O)(=O)c2ccccc2)c2ccccc12)C1CCCCC1 :: 92.5

Could you report BINDING IL4 % Neutra at 100 μM for every entry in the following list?
1. CN(CCCCCN(Cc1cccnc1F)Cc1cn(S(=O)(=O)c2ccccc2)c2ccccc12)C1CCCCC1
2. FC(F)(F)c1cccc(-n2cc(CN(CCCCCNC3CCCCC3)Cc3cccnc3)c3ccccc32)c1
3. NCCN(Cc1cccnc1)Cc1cn(S(=O)(=O)c2ccccc2)c2ccccc12
4. O=S(=O)(c1ccccc1)n1cc(CN(CCCCN(C2CCC2)C2CCC2)Cc2cccnc2F)c2ccccc21
5. CCN(CCOCCN(Cc1cccnc1F)Cc1cn(S(=O)(=O)c2ccccc2)c2ccccc12)C1CCCC1
6. O=S(=O)(c1ccccc1)n1cc(CN(CCOCCNC2CCCC2)Cc2cccnc2F)c2ccccc21
7. O=S(=O)(c1ccccc1)n1cc(CN(CCCCNC2CCCCCCC2)Cc2cccnc2F)c2ccccc21

Ans:
1: 91.7; 2: 95.7; 3: 89.4; 4: 92.6; 5: 74.9; 6: 91.1; 7: 92.0
